The entries below are paired with their reported Papp B→A.
Assay: in vitro
Settings: human, Caco-2
Give just the number in ×10⁻⁶ cm/s; leave the unit off.

Some entries whose results are on file:
- compound: "O=[N+]([O-])c1cn2c(n1)OC[C@@H](NCCc1ccc(OC(F)(F)F)cc1)C2"
  Papp B→A, ×10⁻⁶ cm/s: 20.7
- compound: "O=[N+]([O-])c1cn2c(n1)OC[C@@H](NCc1ccc(OC(F)(F)F)cc1)C2"
  Papp B→A, ×10⁻⁶ cm/s: 21
- compound: "CC[C@H]1Oc2nc([N+](=O)[O-])cn2C[C@@H]1NCc1ccc(OC(F)(F)F)cc1"
  Papp B→A, ×10⁻⁶ cm/s: 13.9
- compound: "O=[N+]([O-])c1cn2c(n1)OC[C@@H](NCc1ccc(OC(F)(F)F)c(F)c1)C2"
  Papp B→A, ×10⁻⁶ cm/s: 12.6
- compound: "O=[N+]([O-])c1cn2c(n1)OC[C@@H](NCc1ccc(OC(F)(F)F)c(Cl)c1)C2"
  Papp B→A, ×10⁻⁶ cm/s: 15.3

Ask: Which Papp B→A value belongs to O=C(CO[C@@H]1COc2nc([N+](=O)[O-])cn2C1)N1CCN(c2ccc(C(F)(F)F)cn2)CC1 ?
Reply: 13.7

Ask: Would you mind telling me what Papp B→A value was observed for O=C(CO[C@@H]1COc2nc([N+](=O)[O-])cn2C1)N1CCN(c2ccc(OC(F)(F)F)cc2)CC1 ?
Reply: 12.4

Ask: Query (compound): O=[N+]([O-])c1cn2c(n1)OC1(CC1)C(OCc1ccc(OC(F)(F)F)cc1)C2 (stereo not drawn) ; field requested: Papp B→A
Reply: 18.7

Ask: Would you kindly share the measured Papp B→A for O=[N+]([O-])c1cn2c(n1)OC[C@@H](OCc1ccc(OC(F)(F)F)cc1)C2 [PA-824, reference compound] ?
Reply: 20.4
